tested on: Sarcoma-180; test: Antitumor activity against mouse Sarcoma 180 cells allografted in CD1 mouse at 100 mg/kg, ip qd administered shortly post implantation continued for 8 days relative to vehicle-treated control; format: functional, organism-based; set-up: dose 100 mg/kg
Activity calls are given as the source filed them. The calls are words filed in the database; no cut-off is given here.
Valid outcomes are listed here; reply with one: active, inactive

### Prompt Look up the recorded call for C[C@H]1O[C@@H](n2cc(F)c(N)nc2=O)[C@H](O)[C@@H]1O in this test.
### Response active

### Prompt What do we get for C[C@H]1O[C@@H](n2cc(F)c(=O)[nH]c2=O)[C@H](O)[C@@H]1O [DOXIFLURIDINE] ?
### Response active

### Prompt Here is the next molecule: C[C@H]1O[C@@H](n2cc(F)c(N)nc2=O)[C@@H](O)[C@@H]1O
### Response inactive

### Prompt Now this one: C[C@H]1O[C@@H]2[C@@H](Oc3nc(N)c(F)c[n+]32)[C@@H]1O
### Response active

### Prompt What about this molecule? C[C@H]1O[C@@H](n2cc(F)c(=O)[nH]c2=O)[C@@H](O)[C@@H]1O
### Response inactive
